System: TNBC cells
Experiment: MTT viability assay, parental TNBC cells (lines not singled out)
Format: cell-based
Assay Metric: CC50

IN: Could you share what CC50 was measured for O=C1N(Cc2ccccc2Cl)c2ccccc2C12NN=C(c1cccc(Cl)c1)S2 (stereo not shown) , tested on TNBC cells?
OUT: 7 to 8 µM
